Test system: Staphylococcus aureus
assay summary: Antibacterial activity against Staphylococcus aureus DSM 20231 assessed as growth inhibition after 18 hrs
Format: functional
condition context: DSM 20231, 18 h
Peptide text beside a SMILES is read from it. * marks the point of attachment. Lauroyl = CCCCCCCCCCCC(=O)*; Decanoyl = CCCCCCCCCC(=O)*; Hexanoyl = CCCCCC(=O)*
experimental readout: MIC (µM)

>>> number("CCCCCCCCCC(=O)NCCCC[C@H](NC(=O)[C@H](Cc1c[nH]c2ccccc12)NC(=O)[C@H](CCCNC(=N)N)NC(=O)[C@H](Cc1c[nH]c2ccccc12)NC(=O)[C@H](CCCNC(=N)N)NC(=O)[C@H](Cc1c[nH]c2ccccc12)NC(=O)[C@@H](N)CCCNC(=N)N)C(N)=O (H-RWRWRWK(Decanoyl)-NH2)")
1
>>> number("CCCCCCCCCCCC(=O)NCCCC[C@H](NC(=O)[C@H](Cc1c[nH]c2ccccc12)NC(=O)[C@H](CCCNC(=N)N)NC(=O)[C@H](Cc1c[nH]c2ccccc12)NC(=O)[C@H](CCCNC(=N)N)NC(=O)[C@H](Cc1c[nH]c2ccccc12)NC(=O)[C@@H](N)CCCNC(=N)N)C(N)=O (H-RWRWRWK(Lauroyl)-NH2)")
1
>>> number("CCCCCC(=O)NCCCC[C@H](NC(=O)[C@H](Cc1c[nH]c2ccccc12)NC(=O)[C@H](CCCNC(=N)N)NC(=O)[C@H](Cc1c[nH]c2ccccc12)NC(=O)[C@H](CCCNC(=N)N)NC(=O)[C@H](Cc1c[nH]c2ccccc12)NC(=O)[C@@H](N)CCCNC(=N)N)C(N)=O (H-RWRWRWK(Hexanoyl)-NH2)")
18
>>> number("N=C(N)NCCC[C@H](NC(=O)[C@H](Cc1c[nH]c2ccccc12)NC(=O)[C@H](CCCNC(=N)N)NC(=O)[C@H](Cc1c[nH]c2ccccc12)NC(=O)[C@@H](N)CCCNC(=N)N)C(=O)N[C@@H](Cc1c[nH]c2ccccc12)C(N)=O (H-RWRWRW-NH2)")
11

###

Test system: Acinetobacter baumannii
assay summary: Antibacterial activity against Acinetobacter baumannii DSM 30007 assessed as growth inhibition after 18 hrs
Format: functional
condition context: DSM 30007, 18 h
Peptide text beside a SMILES is read from it. * marks the point of attachment. Myristoyl = CCCCCCCCCCCCCC(=O)*; Decanoyl = CCCCCCCCCC(=O)*
experimental readout: MIC (µM)

>>> number("CCCCCCCCCCCCCC(=O)NCCCC[C@H](NC(=O)[C@H](Cc1c[nH]c2ccccc12)NC(=O)[C@H](CCCNC(=N)N)NC(=O)[C@H](Cc1c[nH]c2ccccc12)NC(=O)[C@H](CCCNC(=N)N)NC(=O)[C@H](Cc1c[nH]c2ccccc12)NC(=O)[C@@H](N)CCCNC(=N)N)C(N)=O (H-RWRWRWK(Myristoyl)-NH2)")
9
>>> number("CCCCCCCCCC(=O)NCCCC[C@H](NC(=O)[C@H](Cc1c[nH]c2ccccc12)NC(=O)[C@H](CCCNC(=N)N)NC(=O)[C@H](Cc1c[nH]c2ccccc12)NC(=O)[C@H](CCCNC(=N)N)NC(=O)[C@H](Cc1c[nH]c2ccccc12)NC(=O)[C@@H](N)CCCNC(=N)N)C(N)=O (H-RWRWRWK(Decanoyl)-NH2)")
5

###

System: Staphylococcus aureus
assay summary: Antibacterial activity against Staphylococcus aureus DSM 20231 assessed as growth inhibition after 18 hrs
Assay type: functional
condition context: DSM 20231, 18 h
Peptide text beside a SMILES is read from it. * marks the point of attachment. Decanoyl = CCCCCCCCCC(=O)*; Octanoyl = CCCCCCCC(=O)*; Hexanoyl = CCCCCC(=O)*; Butyryl = CCCC(=O)*
experimental readout: MIC (µM)

>>> number("CCCCCC(=O)NCCCC[C@H](N)C(=O)N[C@@H](CCCNC(=N)N)C(=O)N[C@@H](Cc1c[nH]c2ccccc12)C(=O)N[C@@H](CCCNC(=N)N)C(=O)N[C@@H](Cc1c[nH]c2ccccc12)C(=O)N[C@@H](CCCNC(=N)N)C(=O)N[C@@H](Cc1c[nH]c2ccccc12)C(N)=O (H-K(Hexanoyl)RWRWRW-NH2)")
5
>>> number("CCCCCCCCCC(=O)NCCCC[C@H](N)C(=O)N[C@@H](CCCNC(=N)N)C(=O)N[C@@H](Cc1c[nH]c2ccccc12)C(=O)N[C@@H](CCCNC(=N)N)C(=O)N[C@@H](Cc1c[nH]c2ccccc12)C(=O)N[C@@H](CCCNC(=N)N)C(=O)N[C@@H](Cc1c[nH]c2ccccc12)C(N)=O (H-K(Decanoyl)RWRWRW-NH2)")
2
>>> number("N=C(N)NCCC[C@H](NC(=O)[C@H](Cc1c[nH]c2ccccc12)NC(=O)[C@H](CCCNC(=N)N)NC(=O)[C@H](Cc1c[nH]c2ccccc12)NC(=O)[C@@H](N)CCCNC(=N)N)C(=O)N[C@@H](Cc1c[nH]c2ccccc12)C(=O)N[C@@H](CCCCN)C(N)=O (H-RWRWRWK-NH2)")
37
>>> number("CCCCCCCC(=O)NCCCC[C@H](NC(=O)[C@H](Cc1c[nH]c2ccccc12)NC(=O)[C@H](CCCNC(=N)N)NC(=O)[C@H](Cc1c[nH]c2ccccc12)NC(=O)[C@H](CCCNC(=N)N)NC(=O)[C@H](Cc1c[nH]c2ccccc12)NC(=O)[C@@H](N)CCCNC(=N)N)C(N)=O (H-RWRWRWK(Octanoyl)-NH2)")
2
>>> number("N=C(N)NCCC[C@H](NC(=O)[C@H](Cc1c[nH]c2ccccc12)NC(=O)[C@H](CCCNC(=N)N)NC(=O)[C@H](Cc1c[nH]c2ccccc12)NC(=O)[C@H](CCCNC(=N)N)NC(=O)[C@@H](N)CCCCN)C(=O)N[C@@H](Cc1c[nH]c2ccccc12)C(N)=O (H-KRWRWRW-NH2)")
37
>>> number("CCCC(=O)NCCCC[C@H](N)C(=O)N[C@@H](CCCNC(=N)N)C(=O)N[C@@H](Cc1c[nH]c2ccccc12)C(=O)N[C@@H](CCCNC(=N)N)C(=O)N[C@@H](Cc1c[nH]c2ccccc12)C(=O)N[C@@H](CCCNC(=N)N)C(=O)N[C@@H](Cc1c[nH]c2ccccc12)C(N)=O (H-K(Butyryl)RWRWRW-NH2)")
38

###

Tested on: Escherichia coli
assay summary: Antibacterial activity against Escherichia coli DSM 30083 assessed as growth inhibition after 18 hrs
Type: functional
condition context: DSM 30083, 18 h
Peptide text beside a SMILES is read from it. * marks the point of attachment. Decanoyl = CCCCCCCCCC(=O)*; Octanoyl = CCCCCCCC(=O)*; Butyryl = CCCC(=O)*
experimental readout: MIC (µM)

>>> number("CCCC(=O)NCCCC[C@H](N)C(=O)N[C@@H](CCCNC(=N)N)C(=O)N[C@@H](Cc1c[nH]c2ccccc12)C(=O)N[C@@H](CCCNC(=N)N)C(=O)N[C@@H](Cc1c[nH]c2ccccc12)C(=O)N[C@@H](CCCNC(=N)N)C(=O)N[C@@H](Cc1c[nH]c2ccccc12)C(N)=O (H-K(Butyryl)RWRWRW-NH2)")
38
>>> number("N=C(N)NCCC[C@H](NC(=O)[C@H](Cc1c[nH]c2ccccc12)NC(=O)[C@H](CCCNC(=N)N)NC(=O)[C@H](Cc1c[nH]c2ccccc12)NC(=O)[C@@H](N)CCCNC(=N)N)C(=O)N[C@@H](Cc1c[nH]c2ccccc12)C(N)=O (H-RWRWRW-NH2)")
21
>>> number("CCCCCCCC(=O)NCCCC[C@H](NC(=O)[C@H](Cc1c[nH]c2ccccc12)NC(=O)[C@H](CCCNC(=N)N)NC(=O)[C@H](Cc1c[nH]c2ccccc12)NC(=O)[C@H](CCCNC(=N)N)NC(=O)[C@H](Cc1c[nH]c2ccccc12)NC(=O)[C@@H](N)CCCNC(=N)N)C(N)=O (H-RWRWRWK(Octanoyl)-NH2)")
2
>>> number("CCCCCCCC(=O)NCCCC[C@H](N)C(=O)N[C@@H](CCCNC(=N)N)C(=O)N[C@@H](Cc1c[nH]c2ccccc12)C(=O)N[C@@H](CCCNC(=N)N)C(=O)N[C@@H](Cc1c[nH]c2ccccc12)C(=O)N[C@@H](CCCNC(=N)N)C(=O)N[C@@H](Cc1c[nH]c2ccccc12)C(N)=O (H-K(Octanoyl)RWRWRW-NH2)")
5
>>> number("CCCCCCCCCC(=O)NCCCC[C@H](N)C(=O)N[C@@H](CCCNC(=N)N)C(=O)N[C@@H](Cc1c[nH]c2ccccc12)C(=O)N[C@@H](CCCNC(=N)N)C(=O)N[C@@H](Cc1c[nH]c2ccccc12)C(=O)N[C@@H](CCCNC(=N)N)C(=O)N[C@@H](Cc1c[nH]c2ccccc12)C(N)=O (H-K(Decanoyl)RWRWRW-NH2)")
5

###

Test system: Acinetobacter baumannii
assay summary: Antibacterial activity against Acinetobacter baumannii DSM 30007 assessed as growth inhibition after 18 hrs
Assay type: functional
condition context: DSM 30007, 18 h
Peptide text beside a SMILES is read from it. * marks the point of attachment. Butyryl = CCCC(=O)*
Listed below: MIC values for each entry.
experimental readout: MIC

>>> result("CC(=O)NCCCC[C@H](N)C(=O)N[C@@H](CCCNC(=N)N)C(=O)N[C@@H](Cc1c[nH]c2ccccc12)C(=O)N[C@@H](CCCNC(=N)N)C(=O)N[C@@H](Cc1c[nH]c2ccccc12)C(=O)N[C@@H](CCCNC(=N)N)C(=O)N[C@@H](Cc1c[nH]c2ccccc12)C(N)=O (H-K(Ac)RWRWRW-NH2)")
"> 100 µM"
>>> result("CC(=O)NCCCC[C@H](NC(=O)[C@H](Cc1c[nH]c2ccccc12)NC(=O)[C@H](CCCNC(=N)N)NC(=O)[C@H](Cc1c[nH]c2ccccc12)NC(=O)[C@H](CCCNC(=N)N)NC(=O)[C@H](Cc1c[nH]c2ccccc12)NC(=O)[C@@H](N)CCCNC(=N)N)C(N)=O (H-RWRWRWK(Ac)-NH2)")
"> 100 µM"
>>> result("CCCC(=O)NCCCC[C@H](NC(=O)[C@H](Cc1c[nH]c2ccccc12)NC(=O)[C@H](CCCNC(=N)N)NC(=O)[C@H](Cc1c[nH]c2ccccc12)NC(=O)[C@H](CCCNC(=N)N)NC(=O)[C@H](Cc1c[nH]c2ccccc12)NC(=O)[C@@H](N)CCCNC(=N)N)C(N)=O (H-RWRWRWK(Butyryl)-NH2)")
"> 100 µM"
